# tested-target: AKT2 (Homo sapiens, UniProt P31751)
# Sequence (P31751 whole entry): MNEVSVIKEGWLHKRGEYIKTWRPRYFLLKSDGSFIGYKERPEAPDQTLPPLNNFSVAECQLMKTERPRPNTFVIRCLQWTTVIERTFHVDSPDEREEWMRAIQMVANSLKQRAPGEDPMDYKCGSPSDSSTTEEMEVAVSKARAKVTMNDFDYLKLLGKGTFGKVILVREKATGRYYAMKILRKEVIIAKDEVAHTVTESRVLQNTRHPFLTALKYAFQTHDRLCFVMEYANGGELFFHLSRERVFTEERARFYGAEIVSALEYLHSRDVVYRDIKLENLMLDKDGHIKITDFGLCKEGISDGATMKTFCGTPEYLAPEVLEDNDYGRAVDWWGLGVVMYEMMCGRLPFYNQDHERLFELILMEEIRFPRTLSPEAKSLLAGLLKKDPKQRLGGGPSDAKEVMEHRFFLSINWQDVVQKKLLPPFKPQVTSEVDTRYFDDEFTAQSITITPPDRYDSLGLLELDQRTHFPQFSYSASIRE
# test-protocol: Live cell AKT2 target engagement by NanoBRET competitive probe displacement
# assay-setup: HEK293 cells transfected with kinase-NanoLuciferase fusion, 2 h at 37° C.
# Protocol: Determining Live Cell AKT1 E17K, AKT1 WT, and AKT2 Target Engagement by NanoBRET Competitive Probe Displacement. Live cell target engagement assays were performed as described (Vasta, J. D. et al. Cell Chem Biol 2018, 25(11), 206-214). […] After incubation for 2 h at 37° C., luciferase substrate and extracellular luciferase inhibitor were added to all wells, and luminescent intensity at 460 nm and 600 nm were measured on a multimode plate-reader. […]
The compounds listed here are annotated with their pIC50.
# pIC50 is unitless: minus log10 of the molar concentration; print number only

C=CC(=O)N1CCC(N[C@H]2CCc3cc(-n4c(-c5cccnc5N)nc5ccc(-n6ccc(C7CCC7)n6)nc54)ccc32)CC1 ... 7.38

Name the recorded pIC50 of the item C=CC(=O)N1CCC(N[C@H]2CCc3cc(-n4c(-c5cccnc5N)nc5ccc(-n6cccn6)nc54)ccc32)CC1 in your answer.
6.65

* * *

# tested-target: UniProt:P31751
# test-protocol: Live cell AKT2 target engagement by NanoBRET competitive probe displacement
# assay-setup: HEK293 cells transfected with kinase-NanoLuciferase fusion, 2 h at 37° C.
# Method: Determining Live Cell AKT1 E17K, AKT1 WT, and AKT2 Target Engagement by NanoBRET Competitive Probe Displacement. Live cell target engagement assays were performed as described (Vasta, J. D. et al. Cell Chem Biol 2018, 25(11), 206-214). […] After incubation for 2 h at 37° C., luciferase substrate and extracellular luciferase inhibitor were added to all wells, and luminescent intensity at 460 nm and 600 nm were measured on a multimode plate-reader. […]
Returns: string. Value is T if measured IC50 is below 2000 nM, and F if it is greater than or equal to it.

C=CC(=O)N1CCC(N[C@H]2CCc3cc(-n4c(-c5cccnc5N)nc5ccc(-n6cccn6)nc54)ccc32)C(OC)C1 (single isomer, unassigned) [Example 117] ... T

Report whether reported IC50 is lower than 2000 nM (strictly) for C=CC(=O)N1CCC(N[C@@H]2c3ccc(-n4c(-c5cccnc5N)nc5ccc(-n6cccn6)nc54)cc3CC2OC)CC1 (single isomer, unassigned) [Example 163]
T

Report whether reported IC50 is lower than 2000 nM (strictly) for CC(C)=CC(=O)N1CCC(N[C@H]2CCc3cc(-n4c(-c5cccnc5N)nc5ccc(-n6cccn6)nc54)ccc32)CC1
T

Report whether reported IC50 is lower than 2000 nM (strictly) for C=CC(=O)N1C[C@H]2C[C@@H](C1)C2N[C@H]1CCc2cc(-n3c(-c4cccnc4N)nc4ccc(-n5cccn5)nc43)ccc21 (single isomer, unassigned) [Example 60]
T

Report whether reported IC50 is lower than 2000 nM (strictly) for NC(=O)/C=C/c1ncccc1C(=O)N[C@H]1CCc2cc(-n3c(-c4cccnc4N)nc4ccc(-n5cccn5)nc43)ccc21
T

Report whether reported IC50 is lower than 2000 nM (strictly) for C=CC(=O)N1CCC2(CC1)CC(N[C@H]1CCc3cc(-n4c(-c5cccnc5N)nc5ccc(-n6cccn6)nc54)ccc31)C2
F

* * *

# tested-target: AKT2 (Homo sapiens)
# test-protocol: Live cell AKT2 target engagement by NanoBRET competitive probe displacement
# assay-setup: HEK293 cells transfected with kinase-NanoLuciferase fusion, 2 h at 37° C.
The molecules listed here are annotated with their IC50.
Answer in µM, number only, no unit symbol.

C=CC(=O)N1CCC(N[C@H]2CCc3cc(-n4c(-c5cccnc5N)nc5ccc(-n6ccc(C7CCOCC7)n6)nc54)ccc32)CC1 ... 0.0242

Name the recorded IC50 of the item C=CC(=O)N1CCC(N[C@H]2CCc3cc(-n4c(-c5cccnc5N)nc5cc(C6CC6)cnc54)ccc32)CC1 in your answer.
0.802

Name the recorded IC50 of the item C=CC(=O)N1CCC(N[C@@H]2c3ccc(-n4c(-c5cccnc5N)nc5ccc(-n6ccc(F)n6)nc54)cc3CC2F)C[C@H]1C (single isomer, unassigned) [Example 275] in your answer.
0.0819

Name the recorded IC50 of the item C=CC(=O)N1CCC(N[C@H]2CCc3cc(-n4c(-c5cccnc5N)nc5ccc(-n6ccc(C7CCCC7)n6)nc54)ccc32)CC1 in your answer.
0.0723

Name the recorded IC50 of the item Nc1ncccc1-c1nc2ccc(-n3cccn3)nc2n1-c1ccc2c(c1)CC[C@@H]2NC1CCN(C(=O)[C@H]2CO2)CC1 in your answer.
0.305

Name the recorded IC50 of the item C=CC(=O)N1CCC(N[C@H]2CCc3cc(-n4c(-c5cccnc5N)nc5ccc(-n6cccn6)nc54)ccc32)C[C@H]1COC (single isomer, unassigned) [Example 129] in your answer.
2.72

Name the recorded IC50 of the item C=CC(=O)Nc1cccc(C(=O)N[C@H]2CCc3cc(-n4c(-c5cccnc5N)nc5ccc(-n6cccn6)nc54)ccc32)c1 in your answer.
0.117

Name the recorded IC50 of the item C=C(F)C(=O)N1CCC2(CC1)CC(N[C@H]1CCc3cc(-n4c(-c5cccnc5N)nc5ccc(-n6cccn6)nc54)ccc31)C2 in your answer.
0.278

Name the recorded IC50 of the item C=CC(=O)N(C)CCCN[C@H]1CCc2cc(-n3c(-c4cccnc4N)nc4ccc(-n5cccn5)nc43)ccc21 in your answer.
0.257

Name the recorded IC50 of the item C=CC(=O)N1CCC(N[C@@H]2CCc3cc(-n4c(-c5cccnc5N)nc5ccc(-n6cccn6)nc54)ccc32)CC1 in your answer.
0.189

Name the recorded IC50 of the item C=C(F)C(=O)NCc1ccccc1C(=O)N[C@H]1CCc2cc(-n3c(-c4cccnc4N)nc4ccc(-n5cccn5)nc43)ccc21 in your answer.
0.171
